# System: PI(4)P liposomes
# method_notes: Yeast proteome chip probed with PI(4)P liposomes
# condition_info: liposome binding signal on yeast proteome chip, Cy3-streptavidin detection
parameter_measured: PI(4)P
Quick one: just the number, no unit, thanks!

query: For the molecule shown here, OPY1: yeast GST-HisX6 fusion protein on proteome chip (protein, UniProt P38271 1-328, looked up, GST-His6 fusion tag, yeast GST-HisX6 fusion protein on proteome chip) Pleckstrin homology domain …: MIAGATAPSSQHEILIASNLIKKPSTSQNKTPTAQSSSGNNGAADGAPQGYHHHHHHHRHLWWPRTTDHQYWCVLRKNQFAYYKTRDEREAISVIPRFDILNFKISELDGILTVYTPSKDLIFKFPRGQNEKVGMELMHNWKIALEKFLSSPSGNESVTTGSDYDEEEDDDDLIVVDEKAGPSSSKHSCSLTMDEQLSREDKEFYRMFDPRNAEHQVCSGILYTKVKKKKLFNRAKWQKFNVELTNTSFNLYSFKTGKLKKSIKLDKIIDCIELDNNSKMKNDDTNFALITFDERLSFKAANDQDMVDWIINFKSGILIRKKLKAENI , give the reported PI(4)P.
result: 188.13

Values compiled from patent US20050182242A1.
